Listing: ED50 of selected compounds
# Tested on: Rat Paw Edema
# experiment-summary: Rat paw edema assay (carrageenan-induced)
# Format: in vivo, Male Sprague-Dawley rats
# assay-setup: dose of prodrug, po, required to reduce edema formation by 50% as compared to the vehicle control
readout: ED50 (mg/kg)

compound="CC1(C)OC(O)C(Oc2ccc(F)c(F)c2)=C1c1ccc(S(C)(=O)=O)cc1 (centres unmarked) [Example 10]" readout=ED50 obs_value=0.09
compound="CC1(C)OC(O)C(Oc2cccc(F)c2)=C1c1ccc(S(C)(=O)=O)cc1 (centres unmarked) [Example 9]" readout=ED50 obs_value=1.7
compound="CS(=O)(=O)c1ccc(C2=C(c3cccnc3)C(O)CC2)cc1 (centres unmarked) [Example 40]" readout=ED50 obs_value=1.5
compound="CS(=O)(=O)c1ccc(C2=C(c3ccccc3)C(O)CC2)cc1 (centres unmarked) [Example 13]" readout=ED50 obs_value=0.9
compound="CC(C)OC1=C(c2ccc(S(C)(=O)=O)cc2)C(C)(C)OC1O (centres unmarked) [Example 39]" readout=ED50 obs_value=2.7
